Provenance of the data: the NIST ThermoML archive (doi:10.1021/je200637v)

experiment: activity coefficient (dimensionless); of the first substance listed, at infinite dilution; xn = mol fraction of the nth substance listed; conditions: 343.15 K; Liquid; Chromatography; x1 = 0
Field: activity coefficient. Provide a value for each of the compounds that follow.
Numbers only.

Here's what some known entries look like.
C1COCCO1 [1,4-dioxane] + CCCCCCCCCC[N+](C)(C)C.O=S(=O)([N-]S(=O)(=O)C(F)(F)F)C(F)(F)F = 0.57
OCC(F)(F)F [2,2,2-trifluoroethanol] + CCCCCCCC[N+](C)(C)C.O=S(=O)([N-]S(=O)(=O)C(F)(F)F)C(F)(F)F = 0.35
C=CCCCC [hex-1-ene] + CCCCCCCC[N+](CCCCCCCC)(CCCCCCCC)CCCCCCCC.O=S(=O)([N-]S(=O)(=O)C(F)(F)F)C(F)(F)F = 1.04

// query Item CCCO [propan-1-ol] + CCCCCCCC[N+](CCCCCCCC)(CCCCCCCC)CCCCCCCC.O=S(=O)([N-]S(=O)(=O)C(F)(F)F)C(F)(F)F : provide activity coefficient
// result 1.04
